# target or system: LSD1 (Homo sapiens, UniProt O60341)
# protocol text: Biochemical assay for LSD1 activity (LSD1 demethylase TR-FRET)
# recorded conditions: Table 7; biotinylated H3K4me1 peptide, 50 minutes at room temperature, TR-FRET; read-out: LSD1_Pep_TR-FRET_1.0 (IC50 T50)
pIC50: −log10 of the molar value. Structures can show the parent of a compound that is named as a salt.

{"compound": "CC/C(=C\\c1ccccc1)[C@@H]1C[C@H]1NC1CC2(C1)CN(Cc1ccc(C(=O)O)nc1)C2 (single isomer, unassigned) [Compound 251]", "pIC50": "> 7.00"}
{"compound": "CC/C(=C\\c1ccccc1)[C@@H]1C[C@H]1NC1CC2(C1)CN(CCC(=O)O)C2 (single isomer, unassigned) [Compound 266]", "pIC50": "> 7.00"}
{"compound": "CC/C(=C\\c1ccccc1)[C@@H]1C[C@H]1NCc1cnc(N)nc1 (racemic) [Compound 246, Hydrochloride]", "pIC50": "> 7.00"}
{"compound": "CC/C(=C\\c1ccccc1)[C@@H]1C[C@H]1NC[C@H]1CC[C@H](NCC(C)(C)C(=O)O)CC1 (racemic)", "pIC50": "6.00 to 7.00"}
{"compound": "CC/C(=C\\c1ccccc1)[C@@H]1C[C@H]1NC1CC2(C1)CN(Cc1ccc(C(=O)O)cc1)C2 (single isomer, unassigned) [Compound 250]", "pIC50": "> 7.00"}
{"compound": "CC/C(=C\\c1ccccc1)[C@@H]1C[C@H]1NC1CC2(C1)CN(CC(C)(C)C(=O)O)C2 (racemic)", "pIC50": "> 7.00"}
